Test system: Klebsiella pneumoniae
Method: Antibacterial activity against extended spectrum beta-lactamase producing Klebsiella pneumoniae ATCC 700603 after 18 hrs by agar dilution method
Type: functional
Study Conditions: ATCC 700603, 18 h
Measurement Name: MIC

INSERT INTO results (structure_smiles, measurement_name, observed) VALUES
  ('COC(=O)c1c(OC)cc2cc3c(c(O)c2c1C)C(=O)O[C@@H]3[C@@]1(O)[C@H](O)C(OC)=CC(=O)[C@@H]1O', 'MIC', '> 64 µg/mL'),
  ('COC(=O)c1c(OC)cc2cc3c(c(O)c2c1C)C(=O)O[C@@H]3[C@@]1(O)[C@H](O)C(OC)=CC(=O)[C@@H]1OC', 'MIC', '> 64 µg/mL'),
  ('COC(=O)c1c(OC)cc2cc3c(c(O)c2c1C)C(=O)[C@@]1(O)C(OC)=CC(=O)[C@H](OC)[C@@]1(O)C3=O', 'MIC', '> 64 µg/mL'),
  ('COC(=O)c1c(OC)cc2cc3c(c(O)c2c1C)C(=O)O[C@H]3[C@@]1(O)[C@H](O)C(OC)=CC(=O)[C@H]1OC', 'MIC', '> 64 µg/mL');
